The reported measurements were obtained from paper PMC11054271.

Test system: murine Abcg2
assaySummary: Tissue distribution in wild-type and Abcg2−/− male mice
Format: in vivo
assaySetup: FVB/N, mouse, kidney and plasma, sc; Abcg2−/− male mice, 96 h, 10 mg/kg s.c.; read-out: Tissue/plasma ratio, kidney
readout: Kp at 96 h
Answer with a bare number; do not write a unit.

// recorded Kp at 96 h for `N#Cc1cc(I)c(O)c([N+](=O)[O-])c1` : 0.03

---

Tested on: murine Abcg2
assaySummary: Tissue distribution in wild-type and Abcg2−/− male mice
Assay type: in vivo
assaySetup: FVB/N, mouse, liver, sc; Abcg2−/− male mice, 24 h, 10 mg/kg s.c.; read-out: Tissue concentration, liver
readout: concentration at 24 h (ng/g)
Use ng/g as the unit, but write only the number.

The molecule identified as `N#Cc1cc(I)c(O)c([N+](=O)[O-])c1` registered its concentration at 24 h at 1300
